assay system: BuChE from equine serum (EqBuChE) (Equus caballus)
Construct: butyrylcholinesterase from equine serum (EqBuChE); purchased Sigma-Aldrich (Prague, Czech Republic); host or cells: equine serum (natural source)
Sequence (P81908 whole entry): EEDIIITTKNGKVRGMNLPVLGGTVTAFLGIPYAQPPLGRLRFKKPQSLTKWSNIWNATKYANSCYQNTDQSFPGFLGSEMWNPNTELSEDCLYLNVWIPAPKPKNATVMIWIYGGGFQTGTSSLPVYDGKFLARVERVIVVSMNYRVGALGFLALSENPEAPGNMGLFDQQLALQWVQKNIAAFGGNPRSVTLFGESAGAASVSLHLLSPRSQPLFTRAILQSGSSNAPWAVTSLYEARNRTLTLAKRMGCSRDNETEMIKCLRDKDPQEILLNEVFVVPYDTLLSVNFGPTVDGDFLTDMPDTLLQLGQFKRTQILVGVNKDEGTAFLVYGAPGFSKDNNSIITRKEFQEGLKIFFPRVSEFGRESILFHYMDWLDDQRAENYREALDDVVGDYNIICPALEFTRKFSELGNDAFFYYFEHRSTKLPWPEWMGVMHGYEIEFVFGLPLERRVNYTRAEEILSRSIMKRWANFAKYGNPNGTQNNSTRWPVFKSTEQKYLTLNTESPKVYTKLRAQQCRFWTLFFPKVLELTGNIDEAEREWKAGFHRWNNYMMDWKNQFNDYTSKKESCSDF
test name: biochemical
test conditions: IC50 BuChE, mean ± SD, n = three independent experiments
measured attribute: IC50
State the value with its unit after it.

Query string: Indicate its recorded IC50; the compound in question is NNC(=O)c1ccc(C(F)(F)F)cc1 [compound 1, 4-(Trifluoromethyl)benzohydrazide]
Result string: 204 µM

Query string: Indicate its recorded IC50; the compound in question is "CCCCCCCCCCCCCNC(=O)NNC(=O)c1ccc(C(F)(F)F)cc1"
Result string: 278 µM

Query string: Indicate its recorded IC50; the compound in question is "CNC(=O)NNC(=O)c1ccc(C(F)(F)F)cc1"
Result string: 84.2 µM

---

Assignment: determine reported MIC for the given molecules.
Test system: M. kansasii 235/80 and M. kansasii 6509/96
test name: In vitro antimycobacterial activity (MIC)
Type: cell-based
test conditions: Mycobacterium kansasii, read-out: MIC M. kansasii
Provide the reading as a plain figure in µM.

Query string: Indicate its recorded MIC; the molecule in question is "CCNC(=O)NNC(=O)c1ccc(C(F)(F)F)cc1"
Result string: 1000

Query string: Indicate its recorded MIC; the molecule in question is "CCCCCCNC(=O)NNC(=O)c1ccc(C(F)(F)F)cc1"
Result string: 250

Query string: Indicate its recorded MIC; the molecule in question is "CNC(=O)NNC(=O)c1ccc(C(F)(F)F)cc1"
Result string: 1000

---

assay system: AChE from electric eel (EeAChE) (Electrophorus electricus)
Construct: Acetylcholinesterase used was obtained from electric eel (Electrophorus electricus L; EeAChE); purchased Sigma-Aldrich (Prague, Czech Republic); host or cells: electric eel (natural source)
Sequence (O42275 24-633): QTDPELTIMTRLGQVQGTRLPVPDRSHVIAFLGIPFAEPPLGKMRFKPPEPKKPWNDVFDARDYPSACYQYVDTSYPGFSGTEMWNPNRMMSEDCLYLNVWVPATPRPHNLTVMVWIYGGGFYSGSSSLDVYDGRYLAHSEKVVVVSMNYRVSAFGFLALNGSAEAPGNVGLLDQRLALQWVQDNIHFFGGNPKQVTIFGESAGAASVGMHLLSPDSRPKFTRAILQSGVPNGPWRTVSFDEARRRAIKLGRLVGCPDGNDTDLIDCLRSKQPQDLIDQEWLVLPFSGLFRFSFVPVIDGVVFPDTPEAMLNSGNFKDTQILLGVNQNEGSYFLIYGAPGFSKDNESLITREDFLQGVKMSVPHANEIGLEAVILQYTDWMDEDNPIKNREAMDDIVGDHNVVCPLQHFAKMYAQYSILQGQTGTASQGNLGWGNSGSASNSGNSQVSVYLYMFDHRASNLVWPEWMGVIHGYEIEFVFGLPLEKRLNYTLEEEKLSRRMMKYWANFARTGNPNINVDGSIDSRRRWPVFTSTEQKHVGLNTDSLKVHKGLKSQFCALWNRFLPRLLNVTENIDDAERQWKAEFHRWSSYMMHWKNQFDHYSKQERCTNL
test name: biochemical
test conditions: electric eel AChE; mean ± SD, n = three independent experiments; read-out: IC50 AChE
Assignment: determine reported IC50 for the given molecules.
Provide the reading as a plain figure in µM.

Query string: Indicate its recorded IC50; the molecule in question is "CCCCCCCNC(=O)NNC(=O)c1ccc(C(F)(F)F)cc1"
Result string: 59.2

Query string: Indicate its recorded IC50; the molecule in question is "CCNC(=O)NNC(=O)c1ccc(C(F)(F)F)cc1"
Result string: 56.3

Query string: Indicate its recorded IC50; the molecule in question is "CCCCNC(=O)NNC(=O)c1ccc(C(F)(F)F)cc1"
Result string: 38.6

Query string: Indicate its recorded IC50; the molecule in question is "CCCCCCCCCCCCCCCNC(=O)NNC(=O)c1ccc(C(F)(F)F)cc1"
Result string: 27

Query string: Indicate its recorded IC50; the molecule in question is "CCCCCCCCCCCCNC(=O)NNC(=O)c1ccc(C(F)(F)F)cc1"
Result string: 45.2

Query string: Indicate its recorded IC50; the molecule in question is "CCCCCCCCCCCCCCCCCCNC(=O)NNC(=O)c1ccc(C(F)(F)F)cc1"
Result string: 72.3

Query string: Indicate its recorded IC50; the molecule in question is "CCCCCNC(=O)NNC(=O)c1ccc(C(F)(F)F)cc1"
Result string: 43.6

Query string: Indicate its recorded IC50; the molecule in question is "CCCNC(=O)NNC(=O)c1ccc(C(F)(F)F)cc1"
Result string: 82.3

Query string: Indicate its recorded IC50; the molecule in question is "CCCCCCCCCCCCCCCC(=O)NNC(=O)c1ccc(C(F)(F)F)cc1"
Result string: 91.9

Query string: Indicate its recorded IC50; the molecule in question is "CCCCCCNC(=O)NNC(=O)c1ccc(C(F)(F)F)cc1"
Result string: 49.2

Query string: Indicate its recorded IC50; the molecule in question is "CCCCCC(=O)NNC(=O)c1ccc(C(F)(F)F)cc1"
Result string: 67.1
